The measured values listed here are drawn from patent US8084497B2.

test.system: human μ-opiate receptor (Homo sapiens, UniProt P35372)
Sequence (P35372 whole entry): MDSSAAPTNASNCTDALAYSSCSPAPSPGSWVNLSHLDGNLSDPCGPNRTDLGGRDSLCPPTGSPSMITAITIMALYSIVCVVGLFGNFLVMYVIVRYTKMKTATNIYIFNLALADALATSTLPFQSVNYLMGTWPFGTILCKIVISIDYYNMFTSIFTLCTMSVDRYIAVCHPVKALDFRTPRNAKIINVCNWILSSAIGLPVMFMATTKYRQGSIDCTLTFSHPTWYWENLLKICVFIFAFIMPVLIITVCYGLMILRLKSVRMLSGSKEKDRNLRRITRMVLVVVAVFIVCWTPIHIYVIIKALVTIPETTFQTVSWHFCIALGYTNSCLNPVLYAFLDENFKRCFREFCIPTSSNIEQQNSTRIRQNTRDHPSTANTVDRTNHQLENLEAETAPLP
method.description: Affinity for the human μ-opiate receptor ([3H]-naloxone displacement, CHO-K1 membrane preparation, SPA)
Procedure: Investigation of the affinity for the human μ-opiate receptor The receptor affinity for the human μ-opiate receptor is determined in a homogeneous set-up in microtitre plates. […] After the end of the ninety-minute incubation time, the microtitre plates are centrifuged for 20 minutes at 1,000 g and the radioactivity is measured in a […] (Microbeta-Trilux, PerkinElmer Wallac, Freiburg, Germany). […]
Structures can show the parent of a compound that is named as a salt.
assay.readout: Ki (nM)
One number for each entry, in nM.

INSERT INTO measurements (compound, assay_readout, recorded_measurement) VALUES
  ('CN(C)CC1CCCCC1c1cccc(O)c1 (centres unmarked) [hydrochloride]', 'Ki', 140);

Next compound, Ki to be filled in.
Consider the compound CNCC1CCCCC1c1cccc(O)c1 (centres unmarked) [hydrochloride] and give its measured Ki.
870
